# experimental-details: amyloid nucleation score (Sup35N fusion, yeast selection) (log enrichment); library NNK1; higher = more nucleation; inactive = no reads after selection;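 further: zero at mode of non-aggregating sequences after 7 days selection at 30°C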
measurement-kind: amyloid nucleation score
Format: numeric value only, no unit, no commentary.

Solved entries (count: 6):
In [3]: df
Out[3]:
              substance  observed
0    HLILRTLWYKYLREKFSE    -0.286
1         KLCRFCNRVCYCQ    -0.691
2       VQFSLGALFWWPWGR      2.27
3  PGLDFLGLLHQLISVFAIRL     0.111
4  GKKTRRLYVKWSSSFLNWMK      0.28
5             FAYEAWLMR    -0.077

Data request: Respond only with amyloid nucleation score recorded for YKSIWTRLGSGRSRVGLSRL
Data returned: -0.38

Data request: Respond only with amyloid nucleation score recorded for IFEWFVPLEWSV
Data returned: 0.012

Data request: Respond only with amyloid nucleation score recorded for YIVGPIGVFSY
Data returned: 2.25

Data request: Respond only with amyloid nucleation score recorded for VVVVDDHDDVALSFIHTMSR
Data returned: 0.164

Data request: Respond only with amyloid nucleation score recorded for RTEVIKMNLG
Data returned: -0.085

----------
# experimental-details: amyloid nucleation score (Sup35N fusion, yeast selection) (log enrichment); library NNK1; higher = more nucleation; inactive = no reads after selection
amyloid nucleation score values for the substances below.
Format: numeric value only, no unit, no commentary.

Data request: Respond only with amyloid nucleation score recorded for HVSLVHLRYCRICSLLSMWG
Data returned: 2.77

Data request: Respond only with amyloid nucleation score recorded for MPDFSWA
Data returned: -0.115

Data request: Respond only with amyloid nucleation score recorded for EGNMNEWTCLSCRSRAEEAR
Data returned: -0.255

Data request: Respond only with amyloid nucleation score recorded for DAPVTSSGSML
Data returned: 0.008

Data request: Respond only with amyloid nucleation score recorded for MSDLLSVVN
Data returned: 0.142

Data request: Respond only with amyloid nucleation score recorded for ESVDGTSHAVGIMNGRLKID
Data returned: 1.93

Data request: Respond only with amyloid nucleation score recorded for GLYTLSHHGCNAQGWVRDGS
Data returned: 0.324

Data request: Respond only with amyloid nucleation score recorded for LFIKFGTHVRYILA
Data returned: -0.202

Data request: Respond only with amyloid nucleation score recorded for SIYALVSCSVFVTAMDAVQA
Data returned: 4.17

Data request: Respond only with amyloid nucleation score recorded for RFTSDAQ
Data returned: -0.524

Data request: Respond only with amyloid nucleation score recorded for SRVSLRRQCYVRVNGLCLYI
Data returned: 1.84

Data request: Respond only with amyloid nucleation score recorded for YVPGSRLRPYLIQSFNNSLY
Data returned: 2.81

----------
# experimental-details: amyloid nucleation score (Sup35N fusion, yeast selection) (log enrichment); library NNK1; higher = more nucleation; inactive = no reads after selection
amyloid nucleation score values for the substances below.
Format: numeric value only, no unit, no commentary.

Data request: Respond only with amyloid nucleation score recorded for YTVSTRWRGVNIPYVKHAAL
Data returned: 0.499

Data request: Respond only with amyloid nucleation score recorded for FIIPDRVRFLKGMTSFVNSS
Data returned: -0.349

Data request: Respond only with amyloid nucleation score recorded for YDRVYLNQFVRTESVHFFCL
Data returned: 6.34

Data request: Respond only with amyloid nucleation score recorded for YSWTVAKIFTYFSVQLSIFR
Data returned: -0.396

Data request: Respond only with amyloid nucleation score recorded for CKQRKCLGRIYVCEHISQSL
Data returned: 0.461

Data request: Respond only with amyloid nucleation score recorded for VITGYVCMDSVQFIWYVVWV
Data returned: -0.638

Data request: Respond only with amyloid nucleation score recorded for QIPPRDL
Data returned: 0.274

Data request: Respond only with amyloid nucleation score recorded for RFLYVGCCINTIVGFTWFRS
Data returned: 3.28

Data request: Respond only with amyloid nucleation score recorded for SLSMDIAVRSTTNRHANNIL
Data returned: -0.494

Data request: Respond only with amyloid nucleation score recorded for SGIRLM
Data returned: -1.32

Data request: Respond only with amyloid nucleation score recorded for RGNPNTVGIITWCDDVFFFQ
Data returned: 3.07

Data request: Respond only with amyloid nucleation score recorded for FFVVVRAHIDPR
Data returned: 0.188

Data request: Respond only with amyloid nucleation score recorded for YLTGVYNWGMCKTCFPRDWG
Data returned: 2.65

Data request: Respond only with amyloid nucleation score recorded for QVNLANFGRRKCKRKGR
Data returned: 0.185

Data request: Respond only with amyloid nucleation score recorded for SVPVSTTDWNSGFLWAGGCS
Data returned: 0.513

Data request: Respond only with amyloid nucleation score recorded for DEPAWCSIFAGDIMLKCC
Data returned: 3.57

Data request: Respond only with amyloid nucleation score recorded for IVRVEWFSHYSFVFNGIDGG
Data returned: 0.679

Data request: Respond only with amyloid nucleation score recorded for WVARVMCRKNSYSMLIMWIC
Data returned: -0.102

Just for reference, the supplement of paper PMC12042874 is where these values come from.
